Molecular target: GPR6 (Homo sapiens)
Construct: expressed in transfected cells; host or cells: CHO cells
Assay: GPR6 antagonist functional cAMP assay (LANCE Ultra cAMP TR-FRET, CHO cells stably expressing GPR6)
Type: cell-based
Conditions: procedure of Example 24
Give IC50 for every item shown.

Enquiry: If you can, please state the reported IC50 value of COC1CCC(c2nc3c(nc2N2CCC(Oc4ccc(F)cc4F)CC2)CCN(C(C)=O)C3)C1 (stereo not shown) [Compound 279] .
Return: 1000 to 30000 nM

Enquiry: Now the compound CCOc1ccc(CN2CCN(c3nc4c(nc3-c3cnn(C)c3)CN(C(C)=O)CC4)CC2)c(F)c1 [Compound 362]
Return: 1000 to 30000 nM

Enquiry: Now the compound CC(C)(O)C(C)(O)c1cc2nc(N3CCN(Cc4ccccc4F)CC3)c(-c3cnn(CF)c3)nc2cn1 (stereo not shown) [Compound 622]
Return: 100 to 1000 nM

Enquiry: Now the compound CC(C)(O)C(=O)c1cc2nc(N3CCC(Oc4ccc(F)cc4F)CC3)c(-c3cnn(C4CC4)c3)nc2cn1 [Compound 625]
Return: 100 to 1000 nM

Enquiry: Now the compound CCCn1cc(-c2nc3c(nc2N2CCC(Oc4ccc(F)cc4F)CC2)CCN(C(C)=O)C3)cn1 [Compound 312]
Return: < 100 nM

Enquiry: Now the compound CC(C)(O)[C@H](O)c1cc2nc(N3CCC(=Cc4ccc(F)cc4F)CC3)c(-c3cnn(C(F)F)c3)nc2cn1 (single isomer, unassigned) [Compound 779]
Return: < 100 nM

Enquiry: Now the compound CN(C)C(=O)N1CCc2nc(N3CCC(Oc4ccc(F)cc4F)CC3)c(-c3ccc(F)c(N)n3)nc2C1 [Compound 629]
Return: < 100 nM

###

Target: GPR6 (Homo sapiens, UniProt P46095)
Construct: expressed in transfected cells; host or cells: CHO cells
Sequence (P46095 whole entry): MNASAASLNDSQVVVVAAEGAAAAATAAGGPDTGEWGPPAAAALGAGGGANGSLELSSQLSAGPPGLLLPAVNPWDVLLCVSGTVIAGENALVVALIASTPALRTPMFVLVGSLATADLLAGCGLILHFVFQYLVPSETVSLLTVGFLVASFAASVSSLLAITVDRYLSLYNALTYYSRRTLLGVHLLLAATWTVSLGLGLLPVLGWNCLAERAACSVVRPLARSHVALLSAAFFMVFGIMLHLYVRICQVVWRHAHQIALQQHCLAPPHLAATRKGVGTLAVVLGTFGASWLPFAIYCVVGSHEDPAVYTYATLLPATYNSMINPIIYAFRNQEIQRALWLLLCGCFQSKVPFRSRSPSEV
Assay: GPR6 antagonist functional cAMP assay (LANCE Ultra cAMP TR-FRET, CHO cells stably expressing GPR6)
Assay type: cell-based
Settings: procedure of Example 24
Give IC50 for every item shown.

Enquiry: If you can, please state the reported IC50 value of CCn1cc(-c2nc3c(nc2N2CCC(Oc4ccc(F)cc4F)CC2)CCN(C(=O)OC)C3)cn1 .
Return: < 100 nM

Enquiry: Now the compound CC(=O)N1CCc2nc(N3CCC(C(O)c4ccc(F)cc4F)CC3)c(-c3ccc(F)c(N)n3)nc2C1 (stereo not drawn)
Return: 1000 to 30000 nM

Enquiry: Now the compound CC(C)(O)[C@H](O)c1cc2nc(-c3cnn(C(F)F)c3)c(N3CCN(Cc4ccccc4F)CC3)nc2cn1 (single isomer, unassigned)
Return: 100 to 1000 nM

Enquiry: Now the compound CC(C)(O)Cc1cc2nc(-c3cnn(CF)c3)c(N3CCC(Oc4ccc(F)cc4F)CC3)nc2cn1
Return: 100 to 1000 nM

Enquiry: Now the compound CC(C)(O)[C@](C)(O)c1cc2nc(N3CCC(Oc4ccc(F)cc4F)CC3)c(-c3cnn(CF)c3)nc2cn1 (single isomer, unassigned)
Return: 100 to 1000 nM

Enquiry: Now the compound CC(C)(O)[C@@H](O)c1cc2nc(N3CCC(=Cc4ccc(F)cc4F)CC3)c(-c3cnn(C4CC4)c3)nc2cn1 (single isomer, unassigned)
Return: 100 to 1000 nM

Enquiry: Now the compound Nc1cc2nc(-c3cnn(CF)c3)c(N3CCN(Cc4ccc(F)cc4F)CC3)nc2cn1
Return: 100 to 1000 nM

Enquiry: Now the compound CC(=O)N1CCc2nc(N3CCN(Cc4ccccc4)CC3)c(-c3cnn(C)c3)nc2C1
Return: 1000 to 30000 nM

Enquiry: Now the compound CC(C)(O)[C@@H](O)c1cc2nc(N3CCC(=Cc4ccc(F)cc4F)CC3)c(-c3cnn(C(F)F)c3)nc2cn1 (single isomer, unassigned)
Return: 100 to 1000 nM

Enquiry: Now the compound C=CC(=O)N1CCc2nc(N3CCC(Oc4ccc(F)cc4F)CC3)c(-c3ccc(F)c(N)n3)nc2C1
Return: < 100 nM

Enquiry: Now the compound Cn1cc(-c2nc3cnc([C@@H](O)C(C)(C)O)cc3nc2N2CCC(=Cc3ccc(F)cc3F)CC2)cn1 (single isomer, unassigned)
Return: < 100 nM

Enquiry: Now the compound COc1ccc(C(=O)N2CCN(c3nc4c(nc3-c3cnn(C)c3)CN(C(C)=O)CC4)CC2)cc1
Return: 1000 to 30000 nM

Enquiry: Now the compound CC(=O)N1CCc2nc(N3CCC(Oc4ccc(F)cc4F)CC3)c(C3CCC(O)CC3)nc2C1 (stereo not drawn)
Return: 1000 to 30000 nM

Enquiry: Now the compound N#CN1CCc2nc(N3CCC(Oc4ccc(F)cc4F)CC3)c(-c3ccc(F)c(N)n3)nc2C1
Return: < 100 nM

Enquiry: Now the compound COC(=O)N1CCc2nc(N3CCC(Oc4ccc(F)cc4F)CC3)c(-c3ccc(F)c(N)n3)nc2C1
Return: < 100 nM

Enquiry: Now the compound Cn1cc(-c2nc3cc([C@](C)(O)C(C)(C)O)ncc3nc2N2CCN(Cc3ccc(F)cc3F)CC2)cn1 (single isomer, unassigned)
Return: 100 to 1000 nM

Enquiry: Now the compound CC(=O)N1CCc2nc(N3CCC(COc4ccc(F)cc4)C3)c(-c3cnn(C)c3)nc2C1 (stereo not drawn)
Return: 1000 to 30000 nM

Enquiry: Now the compound CC(=O)N1CCc2nc(N3CCC(Oc4ccc(F)cc4F)CC3)c(-c3cnn([C@@H](C)C#N)c3)nc2C1 (single isomer, unassigned)
Return: 100 to 1000 nM

Enquiry: Now the compound Cn1cc(-c2nc3cc([C@H](O)C(C)(C)O)ncc3nc2N2CCN(Cc3ccc(F)cc3F)CC2)cn1 (stereo in doubt)
Return: < 100 nM

Enquiry: Now the compound CCn1cc(-c2nc3c(nc2N2CCC(Oc4ccc(F)cc4F)CC2)CCN(S(=O)(=O)CC)C3)cn1
Return: 100 to 1000 nM

Enquiry: Now the compound CC(=O)OC1CCCN(c2nc3c(nc2-c2cnn(C)c2)CN(Cc2ccccc2)CC3)C1 (stereo not drawn)
Return: 1000 to 30000 nM

Enquiry: Now the compound COC[C@](C)(O)c1cc2nc(-c3cnn(C)c3)c(N3CCC(Oc4ccc(F)cc4F)CC3)nc2cn1 (single isomer, unassigned)
Return: 100 to 1000 nM

Enquiry: Now the compound CC(=O)N1CCc2nc(N3CCN(C(=O)c4ccc(F)cc4F)CC3)c(-c3cnn(C)c3)nc2C1
Return: 1000 to 30000 nM

Enquiry: Now the compound CC(=O)N1CCc2nc(N3CCC(Oc4ccc(F)cc4F)CC3)c(-c3ccc4c(n3)OCC4)nc2C1
Return: 1000 to 30000 nM

Enquiry: Now the compound Cn1cc(-c2nc3cc([C@@](C)(O)C(C)(C)O)ncc3nc2N2CCC(Oc3ccc(F)cc3F)CC2)cn1 (single isomer, unassigned)
Return: 100 to 1000 nM

Enquiry: Now the compound CC(=O)N1CCc2nc(N3CCC(C(=O)c4ccc(F)cc4F)CC3)c(-c3ccc(F)c(N)n3)nc2C1
Return: < 100 nM

Enquiry: Now the compound CCn1cc(-c2nc3c(nc2N2CCC(Oc4ccc(F)cc4F)CC2)CCN(C(=O)C2COC2)C3)cn1
Return: 100 to 1000 nM

###

Target: GPR3 (Homo sapiens, UniProt P46089)
Construct: expressed in transfected cells; host or cells: CHO cells
Sequence (P46089 whole entry, species assumed): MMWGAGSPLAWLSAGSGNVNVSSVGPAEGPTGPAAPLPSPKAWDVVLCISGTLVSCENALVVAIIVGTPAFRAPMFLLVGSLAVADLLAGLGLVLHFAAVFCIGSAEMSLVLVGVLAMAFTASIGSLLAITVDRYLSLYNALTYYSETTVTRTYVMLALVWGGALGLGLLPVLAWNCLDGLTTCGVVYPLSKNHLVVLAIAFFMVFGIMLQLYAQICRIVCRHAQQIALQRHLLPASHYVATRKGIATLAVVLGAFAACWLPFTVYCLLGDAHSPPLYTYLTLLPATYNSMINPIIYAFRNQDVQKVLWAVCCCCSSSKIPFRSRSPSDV
Experiment: GPR3 antagonist functional cAMP assay (LANCE Ultra cAMP TR-FRET, CHO cells stably expressing GPR3)
Assay type: cell-based
Details: procedure of Example 24
pIC50: −log10 of the molar value.
recorded.metric: pIC50

Enquiry: # returns recorded pIC50 (system: GPR3 (Homo sapiens, UniProt P46089)) for CC(C)(O)C(C)(O)c1cc2nc(-c3cnn(C(F)F)c3)c(N3CCN(Cc4ccc(F)cc4F)CC3)nc2cn1 (single isomer, unassigned) [Compound 663]
Return: 4.52 to 6.00

Enquiry: Now the molecule Cn1cc(-c2nc3cc([C@@H](O)C(C)(C)O)ncc3nc2N2CCC(=Cc3ccc(F)cc3F)CC2)cn1 (single isomer, unassigned) [Compound 763]
Return: 6.00 to 7.00

Enquiry: Now the molecule CC(C)(O)C(O)c1cc2nc(-c3cnn(C(F)F)c3)c(N3CCN(Cc4ccccc4F)CC3)nc2cn1 (single isomer, unassigned) [Compound 668]
Return: 4.52 to 6.00

Enquiry: Now the molecule COC(=O)[C@H]1C[C@@H]1c1cc2nc(N3CCC(Oc4ccc(F)cc4F)CC3)c(-c3cnn(C)c3)nc2cn1 (single isomer, unassigned) [Compound 733]
Return: 4.52 to 6.00

Enquiry: Now the molecule Cn1cc(-c2nc3cnc([C@H](O)C(C)(C)F)cc3nc2N2CCC(Oc3ccc(F)cc3F)CC2)cn1 (single isomer, unassigned) [Compound 743]
Return: 4.52 to 6.00

Enquiry: Now the molecule CC(C)(O)C(C)(O)c1cc2nc(-c3cnn(C(F)F)c3)c(N3CCN(Cc4ccccc4F)CC3)nc2cn1 (single isomer, unassigned) [Compound 709]
Return: 4.52 to 6.00
